- protocol: In vitro cytotoxicity against Leukemia cancer cells.
- Type: functional
- measurement_setup: Homo sapiens, Cancer cell lines
A collection of molecules and their measured LC50 (lethal concentration 50%)
measured_property: LC50 (lethal concentration 50%)

>>> result("CC(=O)OC1CCc2c3c(n(C(C)=O)c21)C(=O)C(N1CC1)=C(C)C3=O (stereo not given)")
"> 100 µM"
>>> result("CC1=C(N2CC2)C(=O)c2[nH]c(CO)c(C)c2C1=O")
"> 100 µM"
>>> result("COC1CCc2c1[nH]c1c2C(=O)C(C)=C(N2CC2)C1=O (stereo not given)")
"87.1 µM"
>>> result("CC1=C(N2CC2)C(=O)c2[nH]c(C)c(C)c2C1=O")
"> 100 µM"
>>> result("CC(=O)OCc1[nH]c2c(c1C)C(=O)C(N1CC1)=C(C)C2=O")
"> 100 µM"
>>> result("CC1=C(N2CC2)C(=O)c2[nH]c3c(c2C1=O)CCC3O (stereo not given)")
"87.1 µM"
>>> result("CC(=O)OC1CCc2c1[nH]c1c2C(=O)C(C)=C(N2CC2)C1=O (stereo not given)")
"50.1 µM"
>>> result("CC1=C(N2CC2)C(=O)c2[nH]c3c(c2C1=O)CCC3=O")
"> 100 µM"
>>> result("CC(=O)OCc1[nH]c2c(c1C)C(=O)C(C)=C(N1CC1)C2=O")
"> 100 µM"
>>> result("CC1=C(N2CC2)C(=O)c2c([nH]c(CO)c2C)C1=O")
"> 100 µM"
